Provide the recorded pIC50 for the entries that follow.
- target.or.test.system: Integrin alpha-V/beta-3 (Homo sapiens, UniProt P05106+P06756)
- Sequence (P05106 27-788 limits assumed): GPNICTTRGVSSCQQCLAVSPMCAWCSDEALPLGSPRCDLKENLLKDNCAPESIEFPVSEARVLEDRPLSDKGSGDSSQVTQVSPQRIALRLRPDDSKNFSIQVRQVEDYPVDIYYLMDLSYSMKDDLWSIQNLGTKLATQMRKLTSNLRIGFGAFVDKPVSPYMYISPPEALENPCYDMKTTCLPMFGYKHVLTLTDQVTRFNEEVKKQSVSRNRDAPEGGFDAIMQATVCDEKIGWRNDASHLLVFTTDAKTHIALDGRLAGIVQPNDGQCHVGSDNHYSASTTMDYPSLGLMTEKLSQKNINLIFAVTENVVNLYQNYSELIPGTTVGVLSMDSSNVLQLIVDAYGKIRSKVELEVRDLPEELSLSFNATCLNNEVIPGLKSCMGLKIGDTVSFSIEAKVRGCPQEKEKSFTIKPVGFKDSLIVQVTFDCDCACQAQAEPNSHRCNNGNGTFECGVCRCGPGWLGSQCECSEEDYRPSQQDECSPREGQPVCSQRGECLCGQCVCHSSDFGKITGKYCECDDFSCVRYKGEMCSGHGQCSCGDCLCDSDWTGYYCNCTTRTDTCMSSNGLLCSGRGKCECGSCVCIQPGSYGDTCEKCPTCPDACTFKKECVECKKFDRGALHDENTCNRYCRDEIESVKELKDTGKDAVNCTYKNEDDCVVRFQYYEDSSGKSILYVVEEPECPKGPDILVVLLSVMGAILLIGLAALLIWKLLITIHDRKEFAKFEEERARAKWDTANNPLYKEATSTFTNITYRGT
- Sequence (P06756 31-889 limits assumed): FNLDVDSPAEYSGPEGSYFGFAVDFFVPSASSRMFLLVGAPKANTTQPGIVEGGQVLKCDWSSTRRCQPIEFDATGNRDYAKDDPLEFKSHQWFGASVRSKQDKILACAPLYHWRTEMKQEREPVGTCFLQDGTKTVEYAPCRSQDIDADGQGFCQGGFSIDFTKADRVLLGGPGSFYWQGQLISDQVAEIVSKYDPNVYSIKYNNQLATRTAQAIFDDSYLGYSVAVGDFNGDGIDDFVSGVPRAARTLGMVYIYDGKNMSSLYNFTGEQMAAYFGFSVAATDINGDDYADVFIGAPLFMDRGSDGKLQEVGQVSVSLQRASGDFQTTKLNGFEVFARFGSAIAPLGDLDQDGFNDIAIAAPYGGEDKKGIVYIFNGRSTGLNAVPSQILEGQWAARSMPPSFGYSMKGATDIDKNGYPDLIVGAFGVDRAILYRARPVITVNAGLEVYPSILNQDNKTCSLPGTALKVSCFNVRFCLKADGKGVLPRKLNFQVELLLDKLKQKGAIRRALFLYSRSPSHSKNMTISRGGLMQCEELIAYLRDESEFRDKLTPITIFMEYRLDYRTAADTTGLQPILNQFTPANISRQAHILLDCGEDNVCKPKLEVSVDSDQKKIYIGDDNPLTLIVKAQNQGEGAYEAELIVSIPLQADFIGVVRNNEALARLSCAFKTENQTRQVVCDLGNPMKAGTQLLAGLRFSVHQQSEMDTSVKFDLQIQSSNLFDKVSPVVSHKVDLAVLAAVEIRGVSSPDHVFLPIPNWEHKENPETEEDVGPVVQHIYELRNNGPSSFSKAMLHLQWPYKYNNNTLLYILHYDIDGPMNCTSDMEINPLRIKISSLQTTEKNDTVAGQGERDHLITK
- Sequence (P06756 891-1048 limits assumed): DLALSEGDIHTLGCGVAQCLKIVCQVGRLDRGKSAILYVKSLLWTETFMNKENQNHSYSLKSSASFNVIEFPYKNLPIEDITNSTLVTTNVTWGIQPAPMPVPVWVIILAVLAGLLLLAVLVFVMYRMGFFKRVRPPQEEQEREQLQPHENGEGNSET
- test.summary: Inhibition of integrin alpha-v/beta-3 mediated M21 cell adhesion to vitronectin with monoclonal antibody P1F6
- Type: functional, cell-based
One number for each entry, as −log10 of the molar value.

These recorded examples may help you get a feel for the data.
compound	data.value
C[C@H]1C(=O)N[C@@H](CCCN=C(N)N)C(=O)NCC(=O)N[C@@H](CC(=O)O)C(=O)N[C@H](Cc2ccccc2)C(=O)N1C	5.41
Cc1ccnc(NCCCC(=O)NCC(=O)NC(CC(=O)O)c2ccc(-c3cccc4ccccc34)cc2)c1 (stereo unspecified)	5.52
Cc1ccnc(NCCCCC(=O)NCC(=O)NC(CC(=O)O)c2cc(Cl)cc(Cl)c2)c1 (stereo unspecified)	4.80
Cc1ccnc(NCCCCC(=O)NNC(=O)CC(CC(=O)O)c2cc(Cl)cc(Cl)c2)c1 (stereo unspecified)	4.70

For each entry beneath this line, provide reported pIC50.
1. O=C(O)CC(NC(=O)CNC(=O)CCCCNc1ccccn1)c1ccc(-c2ccccc2)cc1 (stereo unspecified)
2. Cc1ccnc(NCCCCC(=O)NNC(=O)NC(CC(=O)O)c2cc(Cl)cc(Cl)c2)c1 (stereo unspecified)

1: 5.02; 2: 4.92

###

- target.or.test.system: Integrin alpha-V/beta-5 (Homo sapiens, UniProt P06756+P18084)
- Sequence (P06756 31-889 limits assumed): as the sequence (P06756 31-889 limits assumed) above
- Sequence (P06756 891-1048 limits assumed): as the sequence (P06756 891-1048 limits assumed) above
- Sequence (P18084 24-799 limits assumed): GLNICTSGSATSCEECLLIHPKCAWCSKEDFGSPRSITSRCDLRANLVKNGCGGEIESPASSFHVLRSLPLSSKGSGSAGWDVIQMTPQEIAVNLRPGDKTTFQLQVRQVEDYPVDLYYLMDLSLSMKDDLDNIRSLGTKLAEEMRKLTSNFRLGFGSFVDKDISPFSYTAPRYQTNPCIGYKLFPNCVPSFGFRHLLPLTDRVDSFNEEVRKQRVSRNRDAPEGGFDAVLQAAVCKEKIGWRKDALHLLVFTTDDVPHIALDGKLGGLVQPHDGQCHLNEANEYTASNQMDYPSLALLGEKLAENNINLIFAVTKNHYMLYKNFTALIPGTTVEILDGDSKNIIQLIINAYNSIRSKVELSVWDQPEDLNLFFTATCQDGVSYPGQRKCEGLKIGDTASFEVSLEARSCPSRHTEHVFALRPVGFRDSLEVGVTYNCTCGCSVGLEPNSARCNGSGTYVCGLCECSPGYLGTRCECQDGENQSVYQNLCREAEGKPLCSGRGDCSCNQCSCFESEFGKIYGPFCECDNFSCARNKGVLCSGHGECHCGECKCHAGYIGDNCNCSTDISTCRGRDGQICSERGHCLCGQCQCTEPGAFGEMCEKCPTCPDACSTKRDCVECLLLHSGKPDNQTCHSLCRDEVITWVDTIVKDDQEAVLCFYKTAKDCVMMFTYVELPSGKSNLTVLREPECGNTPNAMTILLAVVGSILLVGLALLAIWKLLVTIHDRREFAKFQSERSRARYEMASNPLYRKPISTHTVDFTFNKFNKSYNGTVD
- test.summary: Inhibition of integrin alpha-v/beta-5 mediated UCLAP-3 cell adhesion on vitronectin
- Type: functional, cell-based
Provide the recorded IC50 for the entries that follow.
Give bare numbers, in µM.

compound	target.or.test.system	value.unit	IC50
N=C(N)NCCCCC(=O)NNC(=O)NC(CC(=O)O)c1ccccc1 (stereo unspecified)	Integrin alpha-V/beta-5 (Homo sapiens, UniProt P06756+P18084)	µM	43
Cc1ccnc(NCCCCC(=O)NNC(=O)CC(CC(=O)O)c2cc(Cl)cc(Cl)c2)c1 (stereo unspecified)	Integrin alpha-V/beta-5 (Homo sapiens, UniProt P06756+P18084)	µM	18
O=C(O)CC(NC(=O)CNC(=O)CCCCNc1ccccn1)c1ccc(-c2ccccc2)cc1 (stereo unspecified)	Integrin alpha-V/beta-5 (Homo sapiens, UniProt P06756+P18084)	µM	26
Cc1ccnc(NCCCCCCC(=O)NC(CC(=O)O)c2cccc([N+](=O)[O-])c2)c1 (stereo unspecified)	Integrin alpha-V/beta-5 (Homo sapiens, UniProt P06756+P18084)	µM	21
Cc1ccnc(NCCCCC(=O)NNC(=O)CC(CC(=O)O)c2ccc(-c3ccccc3)cc2)c1 (stereo unspecified)	Integrin alpha-V/beta-5 (Homo sapiens, UniProt P06756+P18084)	µM	24

For each entry beneath this line, provide reported IC50.
1. O=C(O)CC(NC(=O)CNC(=O)CCCNc1ccccn1)c1cccc([N+](=O)[O-])c1 (stereo unspecified)
2. C[C@H]1C(=O)N[C@@H](CCCN=C(N)N)C(=O)NCC(=O)N[C@@H](CC(=O)O)C(=O)N[C@H](Cc2ccccc2)C(=O)N1C
3. Cc1ccnc(NCCCCC(=O)NNC(=O)NC(CC(=O)O)c2cc(Cl)cc(Cl)c2)c1 (stereo unspecified)

1.2
1.3
5

For each entry beneath this line, provide reported IC50.
1. Cc1ccnc(NCCCCC(=O)NCC(=O)NC(CC(=O)O)c2cc(Cl)cc(Cl)c2)c1 (stereo unspecified)
2. Cc1ccnc(NCCCC(=O)NCC(=O)NC(CC(=O)O)c2ccc(-c3cccc4ccccc34)cc2)c1 (stereo unspecified)
3. Cc1ccnc(NCCCC(=O)NCC(=O)NC(CC(=O)O)c2cccc(OC(F)(F)F)c2)c1 (stereo unspecified)

1: 2; 2: 20; 3: 27
